Biological target: T1, His-tagged cynomolgus monkey CD38 (ACRO Biosystems, CD8-05223 [sic]) (cynomolgus monkey, UniProt Q5VAN0 43-301)
T1 construct: bought protein; used for ELISA coating and as SPR analyte; not shown: His tag
Experiment: ELISA, 1 ug/ml scFv-Fc, coated His-tagged CD38
reported-endpoint: ELISA signal

40769p2.2.A5 scFv-Fc (scFv, V domains shown, scFv-Fc) VH: EVQLLESGGGLIQPGGSLRLSCTASGFDFSSYGMHWVRQAPGKGLEWVGIISDTGGTTYYGDSVKGRFTISRDNSKSTLYLQMNSLRAEDTALYYCASYIMDVWGQGTTVTVSS VL: QSVLTQPPSASGTPGQRVTISCSGSNSNVGDNAVYWYQQLPGTAPKLLFYGTNRRPSGVPDRFSGSKSGTSASLAISGLQSEDEADYYCAAWDDSLNAWVFGGGTKLTVL; 1.6
40769p2.2.D9 scFv-Fc (scFv, V domains shown, scFv-Fc) VH: EVQLLESGGGLVQPGGSLRLSCAGSGFTFSDYWMSWVRQAPGKGLEWVSTISITAGIIYYADSVKGRFTISRDNSKNTLYLQMNSLRAEDTAVYYCAKDNWNDYYGMDVWGQGTTVTVSS VL: QSVLTQPPSASGTPGQRVTVSCSGSRSNIRDNYVYWYQQVPGTAPKLLIYKDDQRPSGVPDRFSGSKSGTSASLVISGLQSEDEADYYCATWDGSLNARVFGGGTKLTVL; 1.47

Please give ELISA signal, item by item, for the list that follows.
1. 40769p2.2.A6 scFv-Fc (scFv, V domains shown, scFv-Fc) VH: EVQLLESGGGLVQPGGSLRLSCAASGFTFSDYEMNWVRQAPGKGLEWVSAISITGSWTYYADSVKGRFTISRDNSENTLYLQMNNLRAEDTAVYYCANYKSYYGMDVWGRGTTVTVSS VL: QSVLTQPPSASGTPGQRVTISCSGSRSNIRNNLVNWYQQLPGTAPKLLIYNTQRPSGVPDRFSGSKSGTSASLAISGLQSEDEADYYCASWDASLNAWVFGGGTKLTVL
2. 40769p2.2.D3 scFv-Fc (scFv, V domains shown, scFv-Fc) VH: EVQLLESGGGLIQPGGSLRLSCTASGFDFSSYGMHWVRQAPGKGLEWVGIISDSGGTTYYADSVKGRFTISRDNSKNTLYLQMNSLRAEDTALYYCASYIMDVWGQGITVTVSS VL: QSVLTQPPSASGTPGQRVTISCSGSNSNVGVNSVYWYQQLPGTAPKLLIYGSGRRPSGVPDRFSVSKSGTSASLAISGLQSEDEADYYCAAWDGGLNAWVFGGGTKLTVL

1. 1.62
2. 1.34
